B1: TPR t1 (parent)
chain: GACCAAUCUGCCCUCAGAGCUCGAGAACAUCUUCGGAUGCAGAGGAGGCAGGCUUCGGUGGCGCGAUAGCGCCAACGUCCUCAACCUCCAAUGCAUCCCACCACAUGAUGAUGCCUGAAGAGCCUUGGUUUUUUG

# Variants of: B1
# assay-info: polymerase ribozyme fitness, log enrichment relative to wild type (log ratio); higher = more active; in vitro selection for triplet polymerase activity
Given measured polymerase ribozyme fitness (log ratio), output class 1 if it is greater than or equal to -3 and class 0 if not.

>>> category("C70U A118U C123A U130C")
"class 1"
>>> category("G25U A37U")
"class 0"
>>> category("A43U G63A")
"class 1"
>>> category("A6U C8A G71C C115A U116A A121G U131A")
"class 1"

Is polymerase ribozyme fitness (log ratio) at least -3? Consider C11G G39A G60C class 1

Item C34A G60A C115U with polymerase ribozyme fitness (log ratio) of -3 or above? class 0

Textbook exercise: given the entry C64A U78C , state whether its polymerase ribozyme fitness (log ratio) is greater than or equal to -3. class 0
